system: human DHFR versus Leishmania major PTR1; test: Selectivity index, ratio of IC50 for human DHFR to IC50 for Leishmania major PTR1; type: toxicity; details: read-out: Ratio IC50
Given measured selectivity ratio, output fulfilled if it is greater than or equal to 100 and not fulfilled if not.

Example cases with answers are listed next.
- structureSmilesString: "Nc1nc(N)c2nc(CNc3ccc(C(=O)c4ccccc4)cc3)cnc2n1"
  testedTarget: "human DHFR versus Leishmania major PTR1"
  group: "fulfilled"
- structureSmilesString: "CN(Cc1cnc2nc(N)nc(N)c2n1)c1ccc(C(=O)N2CCCCC2)cc1"
  testedTarget: "human DHFR versus Leishmania major PTR1"
  group: "fulfilled"
- structureSmilesString: "Nc1nc(N)c2nc(CNc3cccc4ccccc34)cnc2n1"
  testedTarget: "human DHFR versus Leishmania major PTR1"
  group: "fulfilled"
- structureSmilesString: "Nc1nc(N)c2nc(C(=O)NCc3ccccc3)cnc2n1"
  testedTarget: "human DHFR versus Leishmania major PTR1"
  group: "not fulfilled"
- structureSmilesString: "COC(=O)C1CCN(C(=O)c2cccc(NCc3cnc4nc(N)nc(N)c4n3)c2)CC1"
  testedTarget: "human DHFR versus Leishmania major PTR1"
  group: "not fulfilled"
- structureSmilesString: "COC(=O)C1CCN(C(=O)c2ccc(N(CCCO)Cc3cnc4nc(N)nc(N)c4n3)cc2)CC1"
  testedTarget: "human DHFR versus Leishmania major PTR1"
  group: "not fulfilled"
- structureSmilesString: "COC(=O)C1CCN(C(=O)c2ccc(N(Cc3ccccc3)Cc3cnc4nc(N)nc(N)c4n3)cc2)CC1"
  testedTarget: "human DHFR versus Leishmania major PTR1"
  group: "fulfilled"
- structureSmilesString: "COC(=O)C1CCN(C(=O)Cc2ccc(NCc3cnc4nc(N)nc(N)c4n3)cc2)CC1"
  testedTarget: "human DHFR versus Leishmania major PTR1"
  group: "not fulfilled"

Now look at this one.
Dear colleague, could you confirm whether `COc1ccc(CNC(=O)c2ccc(CNCc3cnc4nc(N)nc(N)c4n3)cc2)cc1` has selectivity ratio at or above 100? not fulfilled

###

system: 786-0; assay: Mitochondrial toxicity in human 786-0 cells at 10 uM incubated with compound for 6 hrs followed by incubation with MitoTracker Red chloromethyl-X-rosamine dye for 45 mins by imaging analysis relative to control; type: cell-based; settings: 786-0, 6 h
resultType: Activity (%)
Please give a number only; it is taken to be in %.

Recorded results for 6 molecules are shown here.
- molecule: "COC(=O)C1CCN(C(=O)Cc2ccc(NCc3cnc4nc(N)nc(N)c4n3)cc2)CC1"
  testedTarget: "786-0"
  resultType: "Activity"
  reportedValue: 0
- molecule: "COc1ccc(Oc2ccc(CNCc3cnc4nc(N)nc(N)c4n3)cc2)cc1"
  testedTarget: "786-0"
  resultType: "Activity"
  reportedValue: 0
- molecule: "CCOC(=O)C1CCCN1C(=O)c1ccc(NCc2cnc3nc(N)nc(N)c3n2)cc1 (stereo not given)"
  testedTarget: "786-0"
  resultType: "Activity"
  reportedValue: 0
- molecule: "Nc1nc(N)c2nc(CNc3ccc(C(=O)c4ccccc4)cc3)cnc2n1"
  testedTarget: "786-0"
  resultType: "Activity"
  reportedValue: 10
- molecule: "COc1ccc(Oc2ccc(CN(Cc3ccccc3)Cc3cnc4nc(N)nc(N)c4n3)cc2)cc1"
  testedTarget: "786-0"
  resultType: "Activity"
  reportedValue: 0
- molecule: "Nc1nc(N)c2nc(CNc3ccc(C(=O)NCCc4ccccc4)cc3)cnc2n1"
  testedTarget: "786-0"
  resultType: "Activity"
  reportedValue: 13

Value of Activity reported for the molecule `COC(=O)C1CCN(C(=O)c2ccc(N(CCCO)Cc3cnc4nc(N)nc(N)c4n3)cc2)CC1` is 0

Looking up `Nc1nc(N)c2nc(C(=O)NCc3cccc(C(F)(F)F)c3)cnc2n1` , I see its Activity listed as 0

The value of Activity measured for the molecule `CCCOC(=O)C1CCN(C(=O)c2ccc(N(C)Cc3cnc4nc(N)nc(N)c4n3)cc2)CC1` turned out to be 0

# molecule `Nc1nc(N)c2nc(CNc3cccc4ccccc34)cnc2n1` ; its Activity = 0

###

molecular target: Pteridine reductase, putative (Trypanosoma brucei, UniProt Q581W1); test: Inhibition of recombinant Trypanosoma brucei PTR1 expressed in Escherichia coli BL21 (DE3) cells using H2B as substrate in presence of cytochrome c and NADPH by envision multilabel reader
Sequence (Q581W1 whole entry): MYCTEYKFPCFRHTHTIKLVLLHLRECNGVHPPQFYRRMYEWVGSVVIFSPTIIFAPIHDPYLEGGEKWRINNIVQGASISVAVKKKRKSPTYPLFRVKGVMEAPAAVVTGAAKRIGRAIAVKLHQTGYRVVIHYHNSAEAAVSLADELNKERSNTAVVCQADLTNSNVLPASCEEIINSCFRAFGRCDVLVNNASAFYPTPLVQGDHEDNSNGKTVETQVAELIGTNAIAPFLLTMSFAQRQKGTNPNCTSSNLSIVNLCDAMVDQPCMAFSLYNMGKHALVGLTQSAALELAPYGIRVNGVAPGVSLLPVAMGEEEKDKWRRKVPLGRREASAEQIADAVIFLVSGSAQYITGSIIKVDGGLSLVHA
resultType: log10(IC50) (log10 of the value in nM)
# log10 transformed; quantity=IC50; unit=nM

See these solved cases before continuing.
- structureSmilesString: "NC(=O)C1CCN(C(=O)Cc2ccc(N(CCCO)Cc3cnc4nc(N)nc(N)c4n3)cc2)CC1"
  testedTarget: "Pteridine reductase, putative (Trypanosoma brucei, UniProt Q581W1)"
  log10(IC50): 1.00
- structureSmilesString: "COC(=O)C1CCN(C(=O)c2ccc(N(CCCO)Cc3cnc4nc(N)nc(N)c4n3)cc2)CC1"
  testedTarget: "Pteridine reductase, putative (Trypanosoma brucei, UniProt Q581W1)"
  log10(IC50): 1.48
- structureSmilesString: "COC(=O)C1CCN(C(=O)c2ccc(N(CCO)Cc3cnc4nc(N)nc(N)c4n3)cc2)CC1"
  testedTarget: "Pteridine reductase, putative (Trypanosoma brucei, UniProt Q581W1)"
  log10(IC50): 2.30
- structureSmilesString: "COC(=O)C1CCN(C(=O)c2cccc(NCc3cnc4nc(N)nc(N)c4n3)c2)CC1"
  testedTarget: "Pteridine reductase, putative (Trypanosoma brucei, UniProt Q581W1)"
  log10(IC50): 2.18
- structureSmilesString: "COC(=O)C1CCN(C(=O)c2ccc(NCc3cnc4nc(N)nc(N)c4n3)cc2)CC1"
  testedTarget: "Pteridine reductase, putative (Trypanosoma brucei, UniProt Q581W1)"
  log10(IC50): 2.04

Proceeding to the next compound to report its log10(IC50).
Item: `NC(=O)C1CCN(C(=O)c2ccc(NCc3cnc4nc(N)nc(N)c4n3)cc2)CC1` | log10(IC50): 2.91

###

target: UniProt Q581W1; test: Inhibition of recombinant Trypanosoma brucei PTR1 expressed in Escherichia coli BL21 (DE3) cells using H2B as substrate in presence of cytochrome c and NADPH by envision multilabel reader
resultType: pIC50
Scale: pIC50 equals -log10([C]), with [C] in mol/L.

Some entries whose results are on file:
- structureSmilesString: "Nc1nc(N)c2nc(C(=O)NCc3ccccc3)cnc2n1"
  reportedValue: 8.00
- structureSmilesString: "COC(=O)C1CCN(C(=O)c2ccc(N(C)Cc3cnc4nc(N)nc(N)c4n3)cc2)CC1"
  reportedValue: 7.30

Reported pIC50 ( `COc1ccc(Oc2ccc(CN(C)Cc3cnc4nc(N)nc(N)c4n3)cc2)cc1` ) = 6.82

response.value for `C#CCN(Cc1cnc2nc(N)nc(N)c2n1)c1ccc(C(=O)N2CCC(C(=O)OC)CC2)cc1` (field: pIC50) = 7.40

The compound `Nc1nc(N)c2nc(C(=O)NCc3cccc(C(F)(F)F)c3)cnc2n1` showed pIC50 equal to 8.00

###

test system: human DHFR versus Trypanosoma brucei DHFR; test: Selectivity index, ratio of IC50 for human DHFR to IC50 for Trypanosoma brucei DHFR; type: toxicity; conditions: read-out: Ratio IC50
resultType: selectivity ratio
Reply: number alone, nothing else.

# compound `COc1ccc(CNC(=O)c2ccc(CNCc3cnc4nc(N)nc(N)c4n3)cc2)cc1` ; its selectivity ratio = 1

Please fill in: selectivity ratio reported for `Nc1nc(N)c2nc(C(=O)NCc3ccccc3)cnc2n1` = 1

GET /value?item= `COc1ccc(Oc2ccc(CNCc3cnc4nc(N)nc(N)c4n3)cc2)cc1` &field=selectivity ratio returns 1

# selectivity ratio (compound: `Nc1nc(N)c2nc(CNc3cccc4ccccc34)cnc2n1` ) is 10

What the record says about `Nc1nc(N)c2nc(CNc3ccc(C(=O)NCCc4ccccc4)cc3)cnc2n1` : selectivity ratio is 41

Field selectivity ratio (entry `Nc1nc(N)c2nc(CNCc3ccc(Oc4ccccc4)cc3)cnc2n1` ) reads 1

###

biological target: CYP2C19 (Homo sapiens, UniProt P33261); assay: Inhibition of CYP2C19 (unknown origin) expressed in baculovirus-infected insect cells at 10 uM using CYP/Luciferin as substrate incubated for 30 mins in presence of NADPH by luminescence based analysis relative to control; format: ADME; conditions: probe CYP/Luciferin
Sequence (P33261 whole entry): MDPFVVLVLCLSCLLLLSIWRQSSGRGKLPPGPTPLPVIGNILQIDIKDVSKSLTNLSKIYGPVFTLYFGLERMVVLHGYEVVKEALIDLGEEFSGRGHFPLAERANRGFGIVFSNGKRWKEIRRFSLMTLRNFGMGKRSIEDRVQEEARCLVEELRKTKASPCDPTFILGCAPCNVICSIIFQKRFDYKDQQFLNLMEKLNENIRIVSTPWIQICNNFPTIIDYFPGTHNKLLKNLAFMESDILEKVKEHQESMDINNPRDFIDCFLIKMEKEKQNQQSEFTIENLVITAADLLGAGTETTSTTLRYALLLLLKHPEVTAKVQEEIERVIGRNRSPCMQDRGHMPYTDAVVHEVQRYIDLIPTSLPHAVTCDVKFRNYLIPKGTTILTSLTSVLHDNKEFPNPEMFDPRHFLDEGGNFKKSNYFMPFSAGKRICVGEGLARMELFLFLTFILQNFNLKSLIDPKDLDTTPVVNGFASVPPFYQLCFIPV
resultType: inhibition at 0.5 h, 10 µM (%)
Write down the numeric answer in % and omit the unit.

Looking up `COC(=O)C1CCN(C(=O)Cc2ccc(NCc3cnc4nc(N)nc(N)c4n3)cc2)CC1` , I found its inhibition at 0.5 h, 10 µM recorded as 12

###

biological target: CYP2C9 (Homo sapiens); assay: Inhibition of CYP2C9 (unknown origin) expressed in baculovirus-infected insect cells at 10 uM using CYP/Luciferin as substrate incubated for 30 mins in presence of NADPH by luminescence based analysis relative to control; type: ADME; conditions: probe CYP/Luciferin
Sequence (P11712 whole entry): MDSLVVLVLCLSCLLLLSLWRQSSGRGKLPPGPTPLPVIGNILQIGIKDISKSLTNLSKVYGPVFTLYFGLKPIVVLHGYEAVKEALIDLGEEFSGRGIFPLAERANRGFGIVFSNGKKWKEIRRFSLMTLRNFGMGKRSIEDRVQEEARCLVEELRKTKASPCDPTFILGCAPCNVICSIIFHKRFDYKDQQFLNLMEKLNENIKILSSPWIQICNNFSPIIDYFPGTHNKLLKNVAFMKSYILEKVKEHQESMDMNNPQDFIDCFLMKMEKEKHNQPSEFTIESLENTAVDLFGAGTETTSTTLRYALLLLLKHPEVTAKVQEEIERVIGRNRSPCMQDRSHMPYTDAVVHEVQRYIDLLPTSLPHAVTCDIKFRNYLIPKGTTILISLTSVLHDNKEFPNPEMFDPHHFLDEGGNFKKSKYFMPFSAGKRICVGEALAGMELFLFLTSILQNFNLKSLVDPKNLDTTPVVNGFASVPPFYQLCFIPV
resultType: inhibition at 0.5 h, 10 µM
Please don't drop the unit; write it after the number.

Reported inhibition at 0.5 h, 10 µM of `COC(=O)C1CCN(C(=O)c2ccc(N(CCCO)Cc3cnc4nc(N)nc(N)c4n3)cc2)CC1` : 17%

Cited source: ChEMBL document CHEMBL5143713
